target: PI3Kα (p110α/p85α)(h) (Homo sapiens, UniProt P42336); test: Assay for phosphatidylinositol 3-kinase alpha (PI3Kα) activity, PI3K-HTRF kit; format: biochemical; details: TR-FRET; enzyme 0.3625 μg/ml, 10 μM PIP2, 10 μM ATP
Sequence (P42336 whole entry): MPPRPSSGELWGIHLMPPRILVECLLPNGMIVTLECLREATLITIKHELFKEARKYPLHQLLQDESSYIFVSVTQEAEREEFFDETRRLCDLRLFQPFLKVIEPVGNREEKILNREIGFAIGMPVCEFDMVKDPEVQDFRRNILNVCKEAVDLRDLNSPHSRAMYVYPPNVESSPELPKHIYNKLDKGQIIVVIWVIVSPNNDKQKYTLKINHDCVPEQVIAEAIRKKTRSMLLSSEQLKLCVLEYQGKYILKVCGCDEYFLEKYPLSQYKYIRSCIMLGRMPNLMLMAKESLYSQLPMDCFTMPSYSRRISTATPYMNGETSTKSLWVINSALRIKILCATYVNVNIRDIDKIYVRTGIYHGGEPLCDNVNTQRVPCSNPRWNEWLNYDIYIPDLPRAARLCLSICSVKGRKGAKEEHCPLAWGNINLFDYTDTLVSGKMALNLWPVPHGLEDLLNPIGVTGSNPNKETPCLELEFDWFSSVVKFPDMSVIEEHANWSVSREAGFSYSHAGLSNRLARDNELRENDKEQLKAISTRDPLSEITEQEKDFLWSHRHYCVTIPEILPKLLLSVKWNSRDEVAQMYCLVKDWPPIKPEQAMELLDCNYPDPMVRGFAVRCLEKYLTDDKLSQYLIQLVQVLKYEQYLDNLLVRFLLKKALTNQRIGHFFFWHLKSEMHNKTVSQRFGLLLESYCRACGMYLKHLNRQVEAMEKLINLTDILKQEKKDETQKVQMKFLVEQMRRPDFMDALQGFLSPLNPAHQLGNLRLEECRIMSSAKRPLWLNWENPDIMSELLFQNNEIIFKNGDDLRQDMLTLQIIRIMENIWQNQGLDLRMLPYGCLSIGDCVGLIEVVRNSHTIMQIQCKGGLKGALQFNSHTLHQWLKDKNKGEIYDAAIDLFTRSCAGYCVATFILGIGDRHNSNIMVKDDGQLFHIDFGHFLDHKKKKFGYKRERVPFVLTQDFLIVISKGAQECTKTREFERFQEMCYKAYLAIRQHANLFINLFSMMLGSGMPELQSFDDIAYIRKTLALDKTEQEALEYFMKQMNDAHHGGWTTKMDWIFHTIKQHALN
Sequence (P27986 whole entry partner): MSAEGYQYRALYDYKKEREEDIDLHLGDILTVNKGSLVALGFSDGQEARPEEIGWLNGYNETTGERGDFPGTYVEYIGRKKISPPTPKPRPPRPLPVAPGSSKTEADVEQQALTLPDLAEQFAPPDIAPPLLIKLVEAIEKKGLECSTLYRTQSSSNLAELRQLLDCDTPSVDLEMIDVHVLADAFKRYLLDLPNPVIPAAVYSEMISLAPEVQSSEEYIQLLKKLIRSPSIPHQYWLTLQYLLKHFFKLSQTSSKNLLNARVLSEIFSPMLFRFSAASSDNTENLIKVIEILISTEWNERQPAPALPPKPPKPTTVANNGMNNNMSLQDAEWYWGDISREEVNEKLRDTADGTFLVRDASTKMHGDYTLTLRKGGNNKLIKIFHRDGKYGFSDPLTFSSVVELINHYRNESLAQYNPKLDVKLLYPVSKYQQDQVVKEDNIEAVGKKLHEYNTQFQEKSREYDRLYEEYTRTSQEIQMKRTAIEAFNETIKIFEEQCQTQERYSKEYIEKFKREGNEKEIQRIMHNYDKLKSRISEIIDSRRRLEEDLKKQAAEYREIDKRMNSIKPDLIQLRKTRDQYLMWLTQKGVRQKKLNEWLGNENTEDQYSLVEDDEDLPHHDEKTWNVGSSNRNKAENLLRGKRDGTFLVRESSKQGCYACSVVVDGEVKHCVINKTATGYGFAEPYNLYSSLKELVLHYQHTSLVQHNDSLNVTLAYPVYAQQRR
reported.property: IC50 (nM)

| test.smiles | result.number |
| --- | --- |
| COc1ncc(-c2cncc3cc(/C=C4\SC(=S)NC4=O)oc23)cc1C | 4 |
| N#Cc1ccc(C#Cc2cncc3cc(/C=C4\SC(=S)NC4=O)oc23)cc1 | 8 |

1 = Cc1ccccc1C#Cc1cncc2cc(/C=C3\SC(=S)NC3=O)oc12
2 = COC(=O)c1cccc(C#Cc2cncc3cc(/C=C4\SC(=O)NC4=O)oc23)c1
IN: Quick check, higher IC50 between 1 and 2 ? Reply with the label of the item you choose.
OUT: 2
(2: 3 nM, 1: 2 nM)

a = O=C1NC(=O)/C(=C/c2cc3cncc(-c4cc5ccccc5s4)c3o2)S1
b = O=C1NC(=S)S/C1=C\c1cc2cncc(-c3cc(Cl)c(S(=O)(=O)N4CCOCC4)c(Cl)c3)c2o1
c = N#Cc1ccccc1C#Cc1cncc2cc(/C=C3\SC(=S)NC3=O)oc12
IN: Descending sort on IC50 required. Order the labels as requested and list them.
OUT: b, a, c

###

molecular target: PI3Kδ (p110δ/p85α)(h) (Homo sapiens, UniProt O00329); experiment: Assay for phosphatidylinositol 3-kinase delta (PI3Kδ) activity, PI3K-HTRF kit; format: biochemical; settings: TR-FRET; enzyme 0.725 μg/ml, 10 μM PIP2, 10 μM ATP
Sequence (O00329 whole entry): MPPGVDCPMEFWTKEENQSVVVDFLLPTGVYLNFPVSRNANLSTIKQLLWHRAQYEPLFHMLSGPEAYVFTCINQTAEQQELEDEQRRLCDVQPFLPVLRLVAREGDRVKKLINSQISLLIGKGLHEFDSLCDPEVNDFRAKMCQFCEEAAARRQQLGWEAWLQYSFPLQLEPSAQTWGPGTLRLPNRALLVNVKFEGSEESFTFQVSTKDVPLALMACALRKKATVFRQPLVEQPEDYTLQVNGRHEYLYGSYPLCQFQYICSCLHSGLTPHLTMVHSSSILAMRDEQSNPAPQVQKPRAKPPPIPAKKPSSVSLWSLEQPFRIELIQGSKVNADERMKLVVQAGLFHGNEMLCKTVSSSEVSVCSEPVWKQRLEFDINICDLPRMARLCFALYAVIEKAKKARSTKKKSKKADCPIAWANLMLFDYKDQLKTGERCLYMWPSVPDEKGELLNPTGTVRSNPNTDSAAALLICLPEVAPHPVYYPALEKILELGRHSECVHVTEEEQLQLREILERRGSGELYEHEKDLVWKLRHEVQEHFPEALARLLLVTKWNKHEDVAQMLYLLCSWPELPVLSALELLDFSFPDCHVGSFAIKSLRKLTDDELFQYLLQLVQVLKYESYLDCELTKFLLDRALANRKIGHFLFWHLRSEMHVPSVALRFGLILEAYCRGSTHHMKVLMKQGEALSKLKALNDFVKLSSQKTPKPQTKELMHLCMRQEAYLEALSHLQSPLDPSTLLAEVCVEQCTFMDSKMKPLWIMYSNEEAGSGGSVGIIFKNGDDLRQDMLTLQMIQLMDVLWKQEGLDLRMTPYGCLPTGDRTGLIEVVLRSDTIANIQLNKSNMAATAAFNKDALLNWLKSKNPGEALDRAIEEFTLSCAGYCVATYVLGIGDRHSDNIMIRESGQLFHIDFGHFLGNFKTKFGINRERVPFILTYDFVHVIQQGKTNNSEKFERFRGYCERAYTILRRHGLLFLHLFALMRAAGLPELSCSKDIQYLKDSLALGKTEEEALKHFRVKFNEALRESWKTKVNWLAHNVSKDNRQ
Sequence (P27986 whole entry partner): as the sequence (P27986 whole entry partner) above
reported.property: IC50 (nM)

// solved cases for IC50 follow
| test.smiles | measurement.unit | IC50 |
| --- | --- | --- |
| O=C1NC(=S)S/C1=C\c1cc2cncc(C#Cc3ccsc3)c2o1 | nM | 120 |
| COc1ccccc1NC(=O)c1cncc2cc(/C=C3\SC(=O)NC3=O)oc12 | nM | 205 |
| O=C1NC(=O)/C(=C/c2cc3cncc(-c4ccc(O)nc4)c3o2)S1 | nM | 168 |

P = Cc1ccccc1C#Cc1cncc2cc(/C=C3\SC(=O)NC3=O)oc12
Q = CNS(=O)(=O)c1ccc(-c2cncc3cc(/C=C4\SC(=O)NC4=O)oc23)cc1F
IN: Quick check, higher IC50 between P and Q ? Reply with the label of the item you choose.
OUT: Q

A = CN(C)S(=O)(=O)c1ccc(C#Cc2cncc3cc(/C=C4\SC(=S)NC4=O)oc23)cc1
B = O=C1NC(=O)/C(=C/c2cc3cncc(C#Cc4ccccc4C(F)(F)F)c3o2)S1
IN: Lowest IC50? choose A or B Reply with the label of the item you choose.
OUT: B

A = N#Cc1ccccc1C#Cc1cncc2cc(/C=C3\SC(=S)NC3=O)oc12
B = Cc1cc(C#Cc2cncc3cc(/C=C4\SC(=O)NC4=O)oc23)ccc1F
IN: Quick check, higher IC50 between A and B ? Reply with the label of the item you choose.
OUT: B

P = CC(C)NS(=O)(=O)c1c(Cl)cc(-c2cncc3cc(/C=C4\SC(=S)NC4=O)oc23)cc1Cl
Q = N#Cc1ccc(C#Cc2cncc3cc(/C=C4\SC(=S)NC4=O)oc23)cc1
IN: Quick check, higher IC50 between P and Q ? Reply with the label of the item you choose.
OUT: Q

###

biological target: PI3K β (p110β/p85α)(h) (Homo sapiens, UniProt P42338); assay: Assay for phosphatidylinositol 3-kinase beta (PI3Kβ) activity, PI3K-HTRF kit; format: biochemical; details: TR-FRET; enzyme 0.725 μg/ml, 10 μM PIP2, 10 μM ATP
Sequence (P42338 whole entry): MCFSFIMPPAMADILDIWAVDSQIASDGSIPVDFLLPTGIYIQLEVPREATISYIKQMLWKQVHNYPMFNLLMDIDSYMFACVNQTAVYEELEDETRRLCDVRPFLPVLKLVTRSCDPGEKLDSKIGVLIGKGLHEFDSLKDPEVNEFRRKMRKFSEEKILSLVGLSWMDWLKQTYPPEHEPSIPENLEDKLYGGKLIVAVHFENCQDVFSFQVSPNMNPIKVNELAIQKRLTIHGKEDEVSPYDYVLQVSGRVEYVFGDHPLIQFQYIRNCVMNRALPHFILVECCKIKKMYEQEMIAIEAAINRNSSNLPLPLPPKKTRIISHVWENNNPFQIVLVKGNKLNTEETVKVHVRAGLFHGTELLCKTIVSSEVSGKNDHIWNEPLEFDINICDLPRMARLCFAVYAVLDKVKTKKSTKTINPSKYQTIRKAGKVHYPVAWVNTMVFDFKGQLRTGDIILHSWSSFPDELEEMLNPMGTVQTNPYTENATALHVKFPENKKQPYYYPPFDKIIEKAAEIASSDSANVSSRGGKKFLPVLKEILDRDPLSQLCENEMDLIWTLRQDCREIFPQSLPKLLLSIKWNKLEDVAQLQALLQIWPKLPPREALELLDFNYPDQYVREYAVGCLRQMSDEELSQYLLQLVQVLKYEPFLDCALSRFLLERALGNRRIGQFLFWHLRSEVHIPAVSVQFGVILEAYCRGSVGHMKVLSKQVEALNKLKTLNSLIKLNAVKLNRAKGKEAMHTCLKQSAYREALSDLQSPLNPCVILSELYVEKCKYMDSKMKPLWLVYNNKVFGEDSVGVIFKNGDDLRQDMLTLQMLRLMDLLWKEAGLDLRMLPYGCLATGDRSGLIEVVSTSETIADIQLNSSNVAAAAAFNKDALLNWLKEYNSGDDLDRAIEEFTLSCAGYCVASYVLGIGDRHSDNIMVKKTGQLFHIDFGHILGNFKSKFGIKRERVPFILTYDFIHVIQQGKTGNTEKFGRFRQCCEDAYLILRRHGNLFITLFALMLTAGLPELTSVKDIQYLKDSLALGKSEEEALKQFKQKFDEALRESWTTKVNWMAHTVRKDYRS
Sequence (P27986 whole entry partner): as the sequence (P27986 whole entry partner) above
reported.property: IC50 (nM)

| test.smiles | IC50 [nM] |
| --- | --- |
| Cc1cc(C#Cc2cncc3cc(/C=C4\SC(=O)NC4=O)oc23)ccc1F | 5070 |
| Cc1cc(-c2cncc3cc(/C=C4\SC(=S)NC4=O)oc23)cnc1F | 156 |
| O=C1NC(=O)/C(=C/c2cc3cncc(-c4ccc(F)cc4F)c3o2)S1 | 208 |
| CCOC(C#Cc1cncc2cc(/C=C3\SC(=S)NC3=O)oc12)OCC | 184 |
| O=C1NC(=O)/C(=C/c2cc3cncc(C#Cc4ccc(Cl)cc4)c3o2)S1 | 104 |

P = CSc1ccc(-c2cncc3cc(/C=C4\SC(=O)NC4=O)oc23)cn1
Q = O=C1NC(=O)/C(=C/c2cc3cncc(-c4cccc(OCc5ccccc5)c4)c3o2)S1
IN: Quick check, higher IC50 between P and Q ? Reply with the label of the item you choose.
OUT: P

###

molecular target: PI3Kδ (p110δ/p85α)(h) (Homo sapiens, UniProt O00329); assay: Assay for phosphatidylinositol 3-kinase delta (PI3Kδ) activity, PI3K-HTRF kit; assay type: biochemical; details: TR-FRET; enzyme 0.725 μg/ml, 10 μM PIP2, 10 μM ATP
reported.property: IC50 (nM)

| compound | measurement.unit | IC50 |
| --- | --- | --- |
| CS(=O)(=O)c1c(F)cc(-c2cncc3cc(/C=C4\SC(=S)NC4=O)oc23)cc1F [Example 332] | nM | 9300 |
| CSc1ccc(-c2cncc3cc(/C=C4\SC(=O)NC4=O)oc23)cn1 [Example 41] | nM | 322 |
| CS(=O)(=O)c1ccc(-c2cncc3cc(/C=C4\SC(=O)NC4=O)oc23)cc1 [Example 40] | nM | 590 |
| COc1ccc(-c2cncc3cc(/C=C4\SC(=O)NC4=O)oc23)cn1 [Example 30] | nM | 460 |
| CN(C)S(=O)(=O)c1ccc(-c2cncc3cc(/C=C4\SC(=O)NC4=O)oc23)cc1F [Example 280] | nM | 3000 |

1 = O=C1NC(=O)/C(=C/c2cc3cncc(-c4cccc(OCC(F)(F)F)c4)c3o2)S1 [Example 110]
2 = COC(=O)c1ccc(C#Cc2cncc3cc(/C=C4\SC(=O)NC4=O)oc23)cc1 [Example 532]
IN: Quick check, higher IC50 between 1 and 2 ? Reply with the label of the item you choose.
OUT: 1
(1: 4230 nM, 2: 137 nM)

1 = Cc1cc(-c2cncc3cc(/C=C4\SC(=O)NC4=O)oc23)ccc1S(=O)(=O)N1CCOCC1 [Example 307]
2 = O=C1NC(=O)/C(=C/c2cc3cncc(-c4cccc(CN5CCCCC5)c4)c3o2)S1 [Example 132]
3 = Cc1cc(-c2cncc3cc(/C=C4\SC(=O)NC4=O)oc23)ccc1S(=O)(=O)NC(C)(C)C [Example 310]
IN: Descending sort on IC50 required. Order the labels as requested and list them.
OUT: 3, 2, 1

###

biological target: PI3Kγ (p120γ)(h) (Homo sapiens, UniProt P48736); test: Assay for phosphatidylinositol 3-kinase gamma (PI3Kγ) activity, PI3K-HTRF kit; format: biochemical; settings: TR-FRET; enzyme 1.45 μg/ml, 10 μM PIP2, 10 μM ATP
Sequence (P48736 whole entry): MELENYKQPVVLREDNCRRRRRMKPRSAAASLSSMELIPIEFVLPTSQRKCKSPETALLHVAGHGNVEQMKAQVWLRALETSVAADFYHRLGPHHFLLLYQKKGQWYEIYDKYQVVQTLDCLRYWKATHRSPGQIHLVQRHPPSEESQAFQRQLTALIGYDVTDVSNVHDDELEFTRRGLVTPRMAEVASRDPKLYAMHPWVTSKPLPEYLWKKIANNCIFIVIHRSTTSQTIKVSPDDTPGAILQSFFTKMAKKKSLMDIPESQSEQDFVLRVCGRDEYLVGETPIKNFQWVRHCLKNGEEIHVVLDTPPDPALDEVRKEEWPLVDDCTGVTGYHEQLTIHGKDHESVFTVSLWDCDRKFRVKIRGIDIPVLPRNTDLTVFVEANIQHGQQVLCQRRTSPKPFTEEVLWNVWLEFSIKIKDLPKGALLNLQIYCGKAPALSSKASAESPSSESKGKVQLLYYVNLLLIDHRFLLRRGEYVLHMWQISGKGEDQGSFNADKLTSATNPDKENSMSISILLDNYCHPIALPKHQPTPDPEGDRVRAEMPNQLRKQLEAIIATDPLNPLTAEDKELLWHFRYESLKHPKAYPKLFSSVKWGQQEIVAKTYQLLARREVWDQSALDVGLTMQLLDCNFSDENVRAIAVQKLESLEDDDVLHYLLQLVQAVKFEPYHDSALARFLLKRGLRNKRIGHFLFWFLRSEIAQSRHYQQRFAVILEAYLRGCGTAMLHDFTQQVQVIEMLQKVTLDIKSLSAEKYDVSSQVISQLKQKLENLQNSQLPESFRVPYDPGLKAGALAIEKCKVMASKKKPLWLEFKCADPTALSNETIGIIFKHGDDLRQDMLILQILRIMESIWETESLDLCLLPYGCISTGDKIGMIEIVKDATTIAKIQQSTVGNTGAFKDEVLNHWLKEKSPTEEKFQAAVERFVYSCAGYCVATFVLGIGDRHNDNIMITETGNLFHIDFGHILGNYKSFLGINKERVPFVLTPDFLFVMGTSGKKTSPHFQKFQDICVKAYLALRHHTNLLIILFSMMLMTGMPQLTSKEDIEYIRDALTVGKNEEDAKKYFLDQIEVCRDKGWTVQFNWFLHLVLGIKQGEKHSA
reported.property: IC50 (nM)

P = CC(C)NS(=O)(=O)c1c(Cl)cc(-c2cncc3cc(/C=C4\SC(=S)NC4=O)oc23)cc1Cl [Example 345]
Q = O=C1NC(=O)/C(=C/c2cc3cncc(-c4ccc5c(c4)OCO5)c3o2)S1 [Example 36]
R = CS(=O)(=O)c1ccc(-c2cncc3cc(/C=C4\SC(=O)NC4=O)oc23)cc1 [Example 40]
IN: Put the listed items above in order, lowest IC50 first. Order the labels as requested and list them.
OUT: P, R, Q
(P: 4 nM, R: 28 nM, Q: 154 nM)

###

molecular target: PI3Kγ (p120γ)(h) (Homo sapiens, UniProt P48736); assay: Assay for phosphatidylinositol 3-kinase gamma (PI3Kγ) activity, PI3K-HTRF kit; type: biochemical; conditions: TR-FRET; enzyme 1.45 μg/ml, 10 μM PIP2, 10 μM ATP
reported.property: IC50 (nM)

// solved cases for IC50 follow
| test.smiles | test.system | IC50, nM |
| --- | --- | --- |
| O=C1NC(=S)S/C1=C\c1cc2cncc(C(=O)NCc3ccc(Cl)cc3)c2o1 | PI3Kγ (p120γ)(h) (Homo sapiens, UniProt P48736) | 134 |
| COc1ccc(-c2cncc3cc(/C=C4\SC(=O)NC4=O)oc23)cc1 | PI3Kγ (p120γ)(h) (Homo sapiens, UniProt P48736) | 5 |
| Nc1ccc(-c2cncc3cc(/C=C4\SC(=S)NC4=O)oc23)cc1C(F)(F)F | PI3Kγ (p120γ)(h) (Homo sapiens, UniProt P48736) | 10 |
| O=C1NC(=O)/C(=C/c2cc3cncc(-c4ccc(S(=O)(=O)N5CCCCC5)cc4)c3o2)S1 | PI3Kγ (p120γ)(h) (Homo sapiens, UniProt P48736) | 38 |

A = COc1ccc(-c2cncc3cc(/C=C4\SC(=O)NC4=O)oc23)cc1C(F)(F)F
B = COC(=O)c1cc(F)cc(-c2cncc3cc(/C=C4\SC(=S)NC4=O)oc23)c1
C = O=C1NC(=O)/C(=C/c2cc3cncc(-c4cc5ccccc5s4)c3o2)S1
D = CS(=O)(=O)c1c(F)cc(-c2cncc3cc(/C=C4\SC(=S)NC4=O)oc23)cc1F
IN: Hi! Can you put these in order of IC50, lowest number first? Order the labels as requested and list them.
OUT: A, B, D, C
